Would you kindly list IC50 (mut)/IC50 (wt) for each of these binders?
- system.name: T1, IGFBP-1 (human, UniProt P08833 26-259)
- T1 construct: Biotinylated in the ELISA assays; also called rhIGFBP-1
- T1 sequence (looked up): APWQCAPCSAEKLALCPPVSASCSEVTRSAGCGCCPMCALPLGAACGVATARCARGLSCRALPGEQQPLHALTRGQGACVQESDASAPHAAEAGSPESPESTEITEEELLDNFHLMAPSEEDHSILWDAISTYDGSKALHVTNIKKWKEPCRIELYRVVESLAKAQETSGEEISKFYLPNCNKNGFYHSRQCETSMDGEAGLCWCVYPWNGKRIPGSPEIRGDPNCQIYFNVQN
- experiment: BIAcore competition: peptide inhibits IGFBP-1 binding to IGF-I; ratio to bp1-01 (wt)
Positions of bridges follow the written chain, without caps; N, C: chain ends. No end group written: not given here.
Give bare numbers, in ratio.

A selection of reference data follows.
| binder | reported.value |
| --- | --- |
| CAAGPLQWLCEKYFG (disulfide 1-10 (inferred), Ala-scan variant of bp1-01; termini and disulfide not restated) [bp1-01 R2A] | 0.9 |
| CRAGPLQWACEKYFG (Ala-scan variant of bp1-01) [bp1-01 L9A] | 33.2 |
| CRAGPLAWLCEKYFG (Ala-scan variant of bp1-01) [bp1-01 Q7A] | 0.7 |
| CRAGPAQWLCEKYFG (Ala-scan variant of bp1-01) [bp1-01 L6A] | 30.3 |

Please examine the following record next.
Ask | Entry under review: CRAGPLQWLCEAYFG (Ala-scan variant of bp1-01) [bp1-01 K12A] . Reported IC50 (mut)/IC50 (wt)?
Reply | 7.9
